Target: Caspase-7 (Homo sapiens)
Sequence (P55210 24-198 limits assumed): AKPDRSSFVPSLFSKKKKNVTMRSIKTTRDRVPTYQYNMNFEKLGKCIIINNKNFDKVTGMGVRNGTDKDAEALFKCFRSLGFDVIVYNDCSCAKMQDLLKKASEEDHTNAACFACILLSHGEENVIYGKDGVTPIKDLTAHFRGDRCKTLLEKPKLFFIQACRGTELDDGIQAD
Sequence (P55210 207-303 limits assumed): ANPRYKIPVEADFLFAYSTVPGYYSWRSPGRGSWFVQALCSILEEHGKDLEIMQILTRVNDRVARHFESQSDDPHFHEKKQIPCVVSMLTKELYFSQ
Assay: Inhibitory concentration against recombinant human caspase-7 […]
pIC50: −log10 of the molar value.
// values below are reported pIC50
RECORDED_ENDPOINT: pIC50

COMPOUND	CENSORING_QUALIFIER	REPORTED_MEASUREMENT
CCCCCCCCN(C)CNCC(=O)[C@H](CC(=O)O)NC(=O)C(CC)n1ccnc(NCc2nonc2C)c1=O (some centres undefined)	=	7.00
CCC(C(=O)N[C@@H](CC(=O)O)C(=O)CNCN1CCC(Cc2ccccc2)CC1)n1ccnc(NCc2nonc2C)c1=O (some centres undefined)	=	6.08
CCC(C(=O)N[C@@H](CC(=O)O)C(=O)CSCc1ccccc1)n1ccnc(NCCn2cccn2)c1=O (some centres undefined)	<	5.00
CCC(C(=O)N[C@@H](CC(=O)O)C(=O)CNCN1C2CCC1CC2)n1ccnc(NCc2nonc2C)c1=O (some centres undefined)	=	6.59

* * *

Target: Caspase-3 (Homo sapiens)
Sequence (P42574 whole entry): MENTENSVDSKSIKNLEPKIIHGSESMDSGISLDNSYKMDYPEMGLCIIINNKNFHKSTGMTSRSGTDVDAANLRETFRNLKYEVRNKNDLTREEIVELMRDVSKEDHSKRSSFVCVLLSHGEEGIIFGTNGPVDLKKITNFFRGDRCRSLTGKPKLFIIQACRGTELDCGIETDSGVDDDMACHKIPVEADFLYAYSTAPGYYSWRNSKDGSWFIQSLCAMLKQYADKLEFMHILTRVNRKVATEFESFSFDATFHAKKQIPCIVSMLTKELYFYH
Assay: Inhibitory concentration against recombinant human caspase-3 in neuronal precursor (NT2) cells
pIC50: −log10 of the molar value.
Catalogue of pIC50 values

MOLECULE	ASSAYED_TARGET	pIC50
CCC(C(=O)N[C@@H](CC(=O)O)C(=O)CNCN1Cc2ccccc2C1)n1ccnc(NCc2nonc2C)c1=O (stereo partly drawn)	Caspase-3 (Homo sapiens)	7.85
CCC(C(=O)N[C@@H](CC(=O)O)C(=O)CNCN(C)C)n1ccnc(NCc2nonc2C)c1=O (stereo partly drawn)	Caspase-3 (Homo sapiens)	7.38
CCCCN(C)CNCC(=O)[C@H](CC(=O)O)NC(=O)C(CC)n1ccnc(NCc2nonc2C)c1=O (stereo partly drawn)	Caspase-3 (Homo sapiens)	7.82
CCCCCCN(C)CNCC(=O)[C@H](CC(=O)O)NC(=O)C(CC)n1ccnc(NCc2nonc2C)c1=O (stereo partly drawn)	Caspase-3 (Homo sapiens)	7.96
CCCCCN(C)CNCC(=O)[C@H](CC(=O)O)NC(=O)C(CC)n1cc(C(C)(C)C)nc(NCc2nonc2C)c1=O (stereo partly drawn)	Caspase-3 (Homo sapiens)	10.00
CCC(C(=O)N[C@@H](CC(=O)O)C(=O)CSCc1ccccc1)n1ccnc(NCc2noc(C)n2)c1=O (stereo partly drawn)	Caspase-3 (Homo sapiens)	7.14
CCC(C(=O)N[C@@H](CC(=O)O)C(=O)CSCc1ccccc1)n1ccnc(NCCOC)c1=O (stereo partly drawn)	Caspase-3 (Homo sapiens)	6.85
CCC(C(=O)N[C@@H](CC(=O)O)C(=O)CNCN1CCCCC1)n1cc(C(C)(C)C)nc(NCc2nonc2C)c1=O (stereo partly drawn)	Caspase-3 (Homo sapiens)	7.68
CCCCCCN(C)CNCC(=O)[C@H](CC(=O)O)NC(=O)C(CC)n1cc(C(C)(CC)CC)nc(NCc2nonc2C)c1=O (stereo partly drawn)	Caspase-3 (Homo sapiens)	7.80
CCC(C(=O)N[C@@H](CC(=O)O)C(=O)CNCN1C2CCC1CC2)n1ccnc(NCc2nonc2C)c1=O (stereo partly drawn)	Caspase-3 (Homo sapiens)	7.64
CCC(C(=O)N[C@@H](CC(=O)O)C(=O)CNCN1CCCC1)n1ccnc(NCc2nonc2C)c1=O (stereo partly drawn)	Caspase-3 (Homo sapiens)	7.48
CCC(C(=O)N[C@@H](CC(=O)O)C(=O)CSCc1ccccc1)n1ccnc(Nc2ccc3sc(C)nc3c2)c1=O (stereo partly drawn)	Caspase-3 (Homo sapiens)	7.06
CCC(C(=O)N[C@@H](CC(=O)O)C(=O)CSCc1ccccc1)n1ccnc(NCCc2nc(C)no2)c1=O (stereo partly drawn)	Caspase-3 (Homo sapiens)	7.10
COc1ccc(S(C)(=O)=O)cc1CC(=O)N[C@H](C(=O)N[C@@H](CC(=O)O)C(=O)CSCc1ccccc1)C(C)C	Caspase-3 (Homo sapiens)	8.30
CC[C@@H](C(=O)N[C@@H](CC(=O)O)C(=O)CSCc1ccccc1)n1cccc(NC(=O)[C@H](CC(=O)O)NC(C)=O)c1=O	Caspase-3 (Homo sapiens)	9.52
CCC(C(=O)N[C@@H](CC(=O)O)C(=O)CSCc1ccccc1)n1ccnc(NCCCc2nc(C)no2)c1=O (stereo partly drawn)	Caspase-3 (Homo sapiens)	7.28
CCOCN(C)CNCC(=O)[C@H](CC(=O)O)NC(=O)C(CC)n1ccnc(NCc2nonc2C)c1=O (stereo partly drawn)	Caspase-3 (Homo sapiens)	7.00
CCC(C(=O)N[C@@H](CC(=O)O)C(=O)CSCc1ccccc1)n1ccnc(NCCCOC)c1=O (stereo partly drawn)	Caspase-3 (Homo sapiens)	7.15
CCC(C(=O)N[C@@H](CC(=O)O)C(=O)CSCc1ccccc1)n1ccnc(NCc2cc(C)no2)c1=O (stereo partly drawn)	Caspase-3 (Homo sapiens)	7.29
CCC(C(=O)N[C@H](C=O)CC(=O)O)n1ccnc(NCc2nonc2C)c1=O (stereo partly drawn)	Caspase-3 (Homo sapiens)	7.11
CCC(C(=O)N[C@@H](CC(=O)O)C(=O)CSCc1ccccc1)n1ccnc(NCCn2nc(C)cc2C)c1=O (stereo partly drawn)	Caspase-3 (Homo sapiens)	6.80
CCCCCN(C)CNCC(=O)[C@H](CC(=O)O)NC(=O)C(CC)n1ccnc(NCc2nonc2C)c1=O (stereo partly drawn)	Caspase-3 (Homo sapiens)	7.89
CCC(C(=O)N[C@@H](CC(=O)O)C(=O)CCCc1ccccc1)n1cc(C(C)(C)C)nc(NCc2nonc2C)c1=O (stereo partly drawn)	Caspase-3 (Homo sapiens)	7.85
CCC(C(=O)N[C@@H](CC(=O)O)C(=O)CSCc1ccccc1)n1ccnc(NCc2nc(C)no2)c1=O (stereo partly drawn)	Caspase-3 (Homo sapiens)	7.32
CCC(C(=O)N[C@@H](CC(=O)O)C(=O)CNCN(C)CC)n1ccnc(NCc2nonc2C)c1=O (stereo partly drawn)	Caspase-3 (Homo sapiens)	7.59
CCC(C(=O)N[C@@H](CC(=O)O)C(=O)CSCc1ccccc1)n1ccnc(NCCCN2CCCC2=O)c1=O (stereo partly drawn)	Caspase-3 (Homo sapiens)	6.72
CCC(C(=O)N[C@@H](CC(=O)O)C(=O)CSCc1ccccc1)n1ccnc(NCc2nonc2C)c1=O (stereo partly drawn)	Caspase-3 (Homo sapiens)	8.10
CCC(C(=O)N[C@@H](CC(=O)O)C(=O)CSCc1ccccc1)n1ccnc(NCC2COc3ccccc3O2)c1=O (stereo partly drawn)	Caspase-3 (Homo sapiens)	6.85
CCC(C(=O)N[C@@H](CC(=O)O)C(=O)CNCN1CCC(Cc2ccccc2)CC1)n1ccnc(NCc2nonc2C)c1=O (stereo partly drawn)	Caspase-3 (Homo sapiens)	7.25
CCCN(C)CNCC(=O)[C@H](CC(=O)O)NC(=O)C(CC)n1ccnc(NCc2nonc2C)c1=O (stereo partly drawn)	Caspase-3 (Homo sapiens)	7.77
CCCCCCN(C)CNCC(=O)[C@H](CC(=O)O)NC(=O)C(CC)n1cc(C(C)(C)C)nc(NCc2nonc2C)c1=O (stereo partly drawn)	Caspase-3 (Homo sapiens)	8.22
CCC(C(=O)N[C@@H](CC(=O)O)C(=O)CSCc1ccccc1)n1ccnc(NCc2nccs2)c1=O (stereo partly drawn)	Caspase-3 (Homo sapiens)	7.59
CCC(C(=O)N[C@@H](CC(=O)O)C(=O)CNCN(CC)CC)n1ccnc(NCc2nonc2C)c1=O (stereo partly drawn)	Caspase-3 (Homo sapiens)	6.92

* * *

Target: Caspase-2 (Homo sapiens, UniProt P42575)
Sequence (P42575 170-325 limits assumed): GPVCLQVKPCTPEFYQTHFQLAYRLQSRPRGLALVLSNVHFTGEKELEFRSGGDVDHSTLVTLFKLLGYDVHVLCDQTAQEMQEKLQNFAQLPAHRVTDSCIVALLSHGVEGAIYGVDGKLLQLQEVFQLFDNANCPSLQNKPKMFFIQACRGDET
Sequence (P42575 334-452 limits assumed): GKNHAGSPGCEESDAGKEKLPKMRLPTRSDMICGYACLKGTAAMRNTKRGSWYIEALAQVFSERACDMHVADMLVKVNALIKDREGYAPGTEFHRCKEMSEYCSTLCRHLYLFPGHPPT
Test: Inhibitory concentration against caspase-2 in neuronal precursor (NT2) cells
pIC50: −log10 of the molar value.

COMPOUND	pIC50
CCCCCCN(C)CC(=O)C(CC(=O)O)NC(=O)C(CC)n1cc(C(C)(C)C)nc(NCc2nonc2C)c1=O (stereo unspecified)	< 5.00

* * *

Target: Caspase-8 (Homo sapiens, UniProt Q14790)
Sequence (Q14790 217-374 limits assumed): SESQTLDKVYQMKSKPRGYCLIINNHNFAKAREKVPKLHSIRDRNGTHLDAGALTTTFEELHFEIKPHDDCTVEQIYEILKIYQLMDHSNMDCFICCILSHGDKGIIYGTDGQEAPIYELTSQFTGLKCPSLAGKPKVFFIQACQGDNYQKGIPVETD
Sequence (Q14790 385-479 limits assumed): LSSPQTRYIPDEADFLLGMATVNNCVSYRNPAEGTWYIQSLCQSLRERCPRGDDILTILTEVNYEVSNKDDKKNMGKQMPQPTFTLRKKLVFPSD
Test: Inhibitory concentration against recombinant human caspase-8 […]
pIC50: −log10 of the molar value.
pIC50 for assorted molecules

MOLECULE	CENSORING_QUALIFIER	pIC50
CCC(C(=O)N[C@@H](CC(=O)O)C(=O)CSCc1ccccc1)n1ccnc(NCc2nccs2)c1=O (stereo partly drawn)	=	5.76
CCC(C(=O)N[C@@H](CC(=O)O)C(=O)CSCc1ccccc1)n1ccnc(NCc2cc(C)no2)c1=O (stereo partly drawn)	=	5.48
CCC(C(=O)N[C@@H](CC(=O)O)C(=O)CSCc1ccccc1)n1ccnc(NCCOC)c1=O (stereo partly drawn)	<	5.00
CCC(C(=O)N[C@@H](CC(=O)O)C(C)=O)n1cc(C(C)(C)C)nc(NCc2nonc2C)c1=O (stereo partly drawn)	=	5.00
CCCCCCN(C)CNCC(=O)[C@H](CC(=O)O)NC(=O)C(CC)n1cc(C(C)(C)C)nc(NCc2nonc2C)c1=O (stereo partly drawn)	=	5.19
CCCCCCN(C)CNCC(=O)[C@H](CC(=O)O)NC(=O)C(CC)n1cc(C(C)C)nc(NCc2nonc2C)c1=O (stereo partly drawn)	=	5.04
CCCCCCN(C)CC(=O)C(CC(=O)O)NC(=O)C(CC)n1cc(C(C)(C)C)nc(NCc2nonc2C)c1=O (stereo not drawn)	=	5.68
CCC(C(=O)N[C@@H](CC(=O)O)C(=O)c1ncc(-c2ccccc2)o1)n1ccnc(NCc2nonc2C)c1=O (stereo partly drawn)	=	5.02
